Values were extracted from paper PMC12706802.

Test system: HDACs in MV-3 cells
procedureText: HDAC whole cell inhibition assay
measurementContext: Homo sapiens, MV-3, light or radiation study, read-out: whole-cell HDAC inhibition EC50, MV-3
reportedProperty: pEC50
As a rule, pEC50 stands for the negative log10 of the concentration, concentration in M.

Lookup: Reported pEC50 for COc1cc(COc2ccc(-c3ccccc3)cc2NC(=O)c2ccc(NC(C)=O)cc2)c([N+](=O)[O-])cc1OC [ST17] : what is it?
Found: 6.41

====

targetEntity: HDAC2 (Homo sapiens)
procedureText: Fluorescence-based biochemical HDAC enzyme inhibition assay (ZMAL substrate)
measurementContext: HDAC2 IC50, with UV irradiation (10 min, 365 nm) of ST17; preincubation 1 h at RT
reportedProperty: IC50 (nM)
Give just the number in nM; leave the unit off.

Lookup: Item under review: COc1cc(COc2ccc(-c3ccccc3)cc2NC(=O)c2ccc(NC(C)=O)cc2)c([N+](=O)[O-])cc1OC . Reported IC50?
Found: 72

====

targetEntity: HDAC2 (Homo sapiens, UniProt Q92769)
Sequence (Q92769 whole entry): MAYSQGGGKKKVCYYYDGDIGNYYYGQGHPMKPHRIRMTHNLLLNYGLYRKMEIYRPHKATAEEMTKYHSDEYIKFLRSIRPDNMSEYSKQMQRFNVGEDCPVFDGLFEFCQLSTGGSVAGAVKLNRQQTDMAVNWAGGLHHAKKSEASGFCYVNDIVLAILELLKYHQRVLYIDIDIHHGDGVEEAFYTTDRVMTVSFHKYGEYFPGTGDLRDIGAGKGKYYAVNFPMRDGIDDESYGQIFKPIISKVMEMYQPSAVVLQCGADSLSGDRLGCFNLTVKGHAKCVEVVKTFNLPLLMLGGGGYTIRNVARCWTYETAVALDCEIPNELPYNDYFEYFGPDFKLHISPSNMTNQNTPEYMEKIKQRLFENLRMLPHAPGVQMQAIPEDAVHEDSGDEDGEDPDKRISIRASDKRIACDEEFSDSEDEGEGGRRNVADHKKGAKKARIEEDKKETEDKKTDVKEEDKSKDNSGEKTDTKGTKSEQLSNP
procedureText: IC50-shift (preincubation time) experiments
measurementContext: HDAC2 IC50, preincubation time 60 min
reportedProperty: pIC50
In textbook form, pIC50 equals minus log to base ten of the concentration in mol/L.

Lookup: What pIC50 value was documented for this compound, CC(=O)Nc1ccc(C(=O)Nc2cc(-c3ccccc3)ccc2O)cc1 ?
Found: 7.12

====

targetEntity: human recombinant HDAC3 (Homo sapiens)
Sequence (O15379 whole entry): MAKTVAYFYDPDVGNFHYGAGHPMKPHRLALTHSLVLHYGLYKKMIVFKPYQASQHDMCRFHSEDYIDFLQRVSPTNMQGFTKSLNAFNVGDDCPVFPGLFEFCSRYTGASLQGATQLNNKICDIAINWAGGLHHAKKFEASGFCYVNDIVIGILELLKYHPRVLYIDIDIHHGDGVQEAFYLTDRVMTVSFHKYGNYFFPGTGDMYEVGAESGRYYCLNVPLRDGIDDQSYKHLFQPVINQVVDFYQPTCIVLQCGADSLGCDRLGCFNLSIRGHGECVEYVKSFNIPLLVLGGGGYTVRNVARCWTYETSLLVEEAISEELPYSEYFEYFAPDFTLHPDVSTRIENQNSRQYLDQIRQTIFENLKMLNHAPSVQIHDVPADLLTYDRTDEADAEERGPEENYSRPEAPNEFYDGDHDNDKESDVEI
Sequence (Q9Y618 395-489 partner limits assumed): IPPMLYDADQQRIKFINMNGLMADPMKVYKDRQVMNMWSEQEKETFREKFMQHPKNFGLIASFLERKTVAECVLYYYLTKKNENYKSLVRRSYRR
procedureText: Fluorescence-based biochemical HDAC enzyme inhibition assay (ZMAL substrate)
measurementContext: HDAC3 IC50, preincubation of enzyme and inhibitor 1 h at RT; no irradiation
reportedProperty: IC50

Lookup: Find the recorded IC50 belonging to COc1cc(COc2ccc(-c3ccccc3)cc2NC(=O)c2ccc(NC(C)=O)cc2)c([N+](=O)[O-])cc1OC and report it.
Found: > 10 µM

====

targetEntity: HDAC2 (Homo sapiens)
procedureText: IC50-shift (preincubation time) experiments
measurementContext: HDAC2 IC50, preincubation time 30 min
reportedProperty: IC50 (nM)
# unit: nM | format: bare number

Lookup: # lookup: IC50 of CC(=O)Nc1ccc(C(=O)Nc2cc(-c3ccccc3)ccc2O)cc1 [ST13]
Found: 83

====

targetEntity: HDAC2 (Homo sapiens, UniProt Q92769)
procedureText: IC50-shift (preincubation time) experiments
measurementContext: HDAC2 IC50, preincubation time 120 min
reportedProperty: pIC50
A value of pIC50 is the negative decimal logarithm of a concentration given in moles per litre.

Lookup: Requested field: pIC50. Item: CC(=O)Nc1ccc(C(=O)Nc2cc(-c3ccccc3)ccc2O)cc1 [ST13]
Found: 7.31

====

Listing of recorded EC50 by entry.
System: MDA-MB-231 cells
procedureText: MTT cell viability (antiproliferative) assay
Assay type: cell-based
measurementContext: Homo sapiens, MDA-MB-231; incubation time 96 h
Quick note: give the figure in µM, leave out the unit.

| compound | reportedProperty | readoutValue |
| --- | --- | --- |
| CC(=O)Nc1ccc(C(=O)Nc2cc(-c3ccccc3)ccc2O)cc1 | EC50 | 13.9 |

Here is another compound to look at.
Lookup: Recorded EC50 for CC(=O)Nc1ccc(C(=O)Nc2cc(-c3cccs3)ccc2N)cc1 [Cpd-60, reference compound] with MDA-MB-231 cells, please?
Found: 3.21
